FYI, the data here is from patent US5290347A.

# methodSummary: Solubility of the salt-forming type dyes (Tables 1-3)
# Assay type: physicochemical
# reportedConditions: solvent: ethanol
quantityKind: Solubility, Ethanol (g/100 ml)

> print(dat)
                                   compound  measureunit  valuemeasured
1  Nc1ccc2cc(S(=O)(=O)O)cc(O)c2c1N=Nc1cc(S(=O)(=O)O)cc2cc(S(=O)(=O)O)c(N=Nc3cccc(P(=O)(O)O)c3)c(O)c12     g/100 ml              3

(1) Nc1c(N=Nc2cccc(P(=O)(O)O)c2)c(S(=O)(=O)O)cc2cc(S(=O)(=O)O)c(N=Nc3cccc(P(=O)(O)O)c3)c(O)c12
(2) Nc1cc(S(=O)(=O)O)cc2cc(S(=O)(=O)O)c(N=Nc3ccc(N=Nc4cccc(P(=O)(O)O)c4)c4ccc(O)cc34)c(O)c12
Task item: Form: Entry with minimum Solubility, Ethanol (choose one): 1 / 2 Answer format: the label of the selected item.
Reply: 1
